Observed MIC, system S. aureus Col8A(Meth^S)(lac^-).
Where a name gives a salt, the structure may show the parent alone.
Express the result in µg/mL but write the number alone.

Solved entries:
- compound: "NCC(O)CSCc1cnccc1SC1=C(C(=O)O)N2C(=O)[C@@H](NC(=O)/C(=N\\O)c3nc(N)sc3Cl)[C@H]2SC1 (stereo partly shown) [Cmpd 32, trifluoroacetic acid salt]"
  assayedTarget: "S. aureus Col8A(Meth^S)(lac^-)"
  readoutType: "MIC"
  experimentalResult: 0.25
- compound: "NC(=O)[C@@H](N)CSCc1cnccc1SC1=C(C(=O)O)N2C(=O)[C@@H](NC(=O)/C(=N\\O)c3nc(N)sc3Cl)[C@H]2SC1 [Cmpd 59, trifluoroacetic acid salt]"
  assayedTarget: "S. aureus Col8A(Meth^S)(lac^-)"
  readoutType: "MIC"
  experimentalResult: 0.25

Task item: Query the reported MIC for S. aureus Col8A(Meth^S)(lac^-); item: NCCSc1cnccc1SC1=C(C(=O)O)N2C(=O)[C@@H](NC(=O)/C(=N\O)c3nc(N)sc3Cl)[C@H]2SC1 [Cmpd 30, trifluoroacetic acid salt]
Reply: 0.13

Task item: Query the reported MIC for S. aureus Col8A(Meth^S)(lac^-); item: Nc1nc(/C(=N/O)C(=O)N[C@@H]2C(=O)N3C(C(=O)O)=C(Sc4ccncc4CSC4CCNCC4)CS[C@H]23)c(Cl)s1 [Cmpd 52, trifluoroacetic acid salt]
Reply: 0.25

Task item: Query the reported MIC for S. aureus Col8A(Meth^S)(lac^-); item: NCC[S+]([O-])Cc1cnccc1SC1=C(C(=O)O)N2C(=O)[C@@H](NC(=O)/C(=N\O)c3nc(N)sc3Cl)[C@H]2SC1 (stereo partly shown) [Cmpd 53, trifluoroacetic acid salt]
Reply: 0.5

---

Listed here: items and their measured MIC.
system: E. faecium A491(Amp^R)
Structures can show the parent of a compound that is named as a salt.

Solved entries:
- compound: "CC(C)(CN)SCc1cnccc1SC1=C(C(=O)O)N2C(=O)[C@@H](NC(=O)/C(=N\\O)c3csc(N)n3)[C@H]2SC1 [Cmpd 19, trifluoroacetic acid salt]"
  assayedTarget: "E. faecium A491(Amp^R)"
  MIC: "> 32 µg/mL"
- compound: "N=C(N)SCc1ncsc1SC1=C(C(=O)O)N2C(=O)[C@@H](NC(=O)Cc3ccccc3)[C@H]2SC1 [Cmpd 5, trifluoroacetic acid salt]"
  assayedTarget: "E. faecium A491(Amp^R)"
  MIC: "> 32 µg/mL"

Task item: Query the reported MIC for E. faecium A491(Amp^R); item: NCCSCc1cnccc1SC1=C(C(=O)O)N2C(=O)[C@@H](NC(=O)Cc3ccccc3)[C@H]2SC1.O=C(O)C(F)(F)F
Reply: > 32 µg/mL

Task item: Query the reported MIC for E. faecium A491(Amp^R); item: NCCSCc1nnsc1SC1=C(C(=O)O)N2C(=O)[C@@H](NC(=O)Cc3ccccc3)[C@H]2SC1.O=C(O)C(F)(F)F
Reply: > 32 µg/mL

---

Structures can show the parent of a compound that is named as a salt.
Observed MIC, system S. aureus Col8A(Meth^S)(lac^-).

Solved entries:
- molecule: "N=C(N)SCc1cnccc1SC1=C(C(=O)O)N2C(=O)[C@@H](NC(=O)Cc3ccccc3)[C@H]2SC1 [Cmpd 1, trifluoroacetic acid salt]"
  MIC: "≤ 0.06 mg/L"
- molecule: "N=C(N)SCc1ncsc1SC1=C(C(=O)O)N2C(=O)[C@@H](NC(=O)Cc3ccccc3)[C@H]2SC1 [Cmpd 5, trifluoroacetic acid salt]"
  MIC: "≤ 0.06 mg/L"
- molecule: "Nc1nc(/C(=N/O)C(=O)N[C@@H]2C(=O)N3C(C(=O)O)=C(Sc4ccncc4CSC[C@H](N)CO)CS[C@H]23)c(Cl)s1 [Cmpd 65, trifluoroacetic acid salt]"
  MIC: "0.5 mg/L"
- molecule: "CN(C)C(=O)[C@@H]1CC(SCc2cnccc2SC2=C(C(=O)O)N3C(=O)[C@@H](NC(=O)/C(=N\\O)c4nc(N)sc4Cl)[C@H]3SC2)CN1 (some centres unmarked) [Cmpd 55, trifluoroacetic acid salt]"
  MIC: "0.5 mg/L"

Task item: Dear colleague, I am looking for the recorded MIC of the following molecule: Nc1nc(/C(=N/O)C(=O)N[C@@H]2C(=O)N3C(C(=O)O)=C(Sc4ccncc4SCCNC=O)CS[C@H]23)c(Cl)s1 [Cmpd 64, trifluoroacetic acid salt]
Reply: 0.25 mg/L
